Biological target: T1, human Siglec15 on human-siglec15-2D3-1E1 cells (human, UniProt Q6ZMC9 20-328)
T1 construct: whole, on cells; Transfected HEK-293 cells; also called cell surface human Siglec15
T1 sequence (looked up): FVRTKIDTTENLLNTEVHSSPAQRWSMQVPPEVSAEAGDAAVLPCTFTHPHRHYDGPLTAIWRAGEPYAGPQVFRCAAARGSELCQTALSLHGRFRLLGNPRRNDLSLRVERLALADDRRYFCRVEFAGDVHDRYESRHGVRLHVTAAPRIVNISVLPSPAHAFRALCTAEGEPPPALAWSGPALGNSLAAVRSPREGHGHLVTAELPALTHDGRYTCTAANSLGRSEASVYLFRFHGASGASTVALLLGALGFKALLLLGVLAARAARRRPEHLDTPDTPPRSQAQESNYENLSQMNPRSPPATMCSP
Test: cell based binding FACS on human-siglec15-2D3-1E1 cells
Experimental endpoint: pEC50
In simple prose, pEC50 is minus the logarithm base ten of a concentration in moles per litre.

B2H2H1H7 (antibody, V domains shown, Mouse monoclonal antibody from hybridoma; also called mouse B2H2H1H7; B2H2H1A7) VH: QVQLQQSGAELVRPGTSVQMSCKAAGYTFTNYWIGWVKQRPGHGLEWVGDIHPGINYTNNNEKFRGKATLTADTSSSTAYMQLRGLTSDDSAIYYCARVDYDYDGSYIMDYWGQGTSVTVSS VL: QIILSQSPALLSASPGEKVTMTCRASSSVSYMYWYQQKPGSSPKPWIYATSNLTSGVPARFSGSGSGTSYSLTISRVEAEDAATYFCQQWNSKPWTFGGGSRLEIR
8.72
anti-Siglec15 benchmark (ch5G12) (antibody, human IgG1, kappa, V domains shown, ch5G12 (US 20190202912A1); also called BM; Siglec15-ch5G9) VH: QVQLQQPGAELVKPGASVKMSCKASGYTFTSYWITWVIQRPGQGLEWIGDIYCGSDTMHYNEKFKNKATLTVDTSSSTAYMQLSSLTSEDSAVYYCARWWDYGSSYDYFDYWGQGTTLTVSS VL: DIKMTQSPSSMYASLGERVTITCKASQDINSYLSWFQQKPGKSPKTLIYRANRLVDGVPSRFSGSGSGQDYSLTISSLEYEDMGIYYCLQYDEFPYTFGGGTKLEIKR
7.94
B2G12H3E8 (antibody, V domains shown, Mouse monoclonal antibody from hybridoma; also called mouse B2G12H3E8) VH: QVQLKQSGAELVRPGTSVQMSCKAVGYTFTNYWIGWVKQRPGHGLEWVGDIHPGINYTNNNEKFRGKATLTADTSSSTAYMQLRGLTSDDSAIYYCARVDYDYDGSYIMDYWGQGTSVTVSS VL: QIVLSQSPALLSASPGEKVTMTCRASSSVSYMYWYQQKPGSSPKPWIYATSNLTSGVPARFSGSGSGTSYSLTISRVEAEDAATYFCQQWNSKPWTFGGGSKLEIR
8.93

We next turn to a different binder, shown below.
**Query** What pEC50 value was documented for this binder, B2D7H7A3C1 (antibody, V domains shown, Mouse monoclonal antibody from hybridoma; also called mouse B2D7H7A3C1) VH: QVQLQQSGAELVRPGTSVQMSCKAAGYTFTNYWIGWVKQRPGHGLEWVGDIHPGINYTNNNEKFRGKATLTADTSSNTAYMQLRGLTSDDSAIYYCARVDYDYDGSYIMDYWGQGTSVTVSS VL: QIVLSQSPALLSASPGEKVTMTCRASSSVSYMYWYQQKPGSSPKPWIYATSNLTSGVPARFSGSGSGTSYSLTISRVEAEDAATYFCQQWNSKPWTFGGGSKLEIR ?
**Result** 9.00
